Measured values drawn from ChEMBL document CHEMBL1158431 for this set.

Could you please report measured iNOS protein level (% of LPS control) at 10 µM for the items listed next?
Test system: RAW264.7
protocol: Antiinflammatory activity in LPS-stimulated mouse RAW264.7 cells assessed as iNOS protein expression at 10 uM after 16 hrs by immunoblot analysis relative to control
measurement-conditions: RAW264.7, 16 h
Give bare numbers, in %.

Guide cases for iNOS protein level (% of LPS control) at 10 µM, answers given:
| molecule | unit | result-number |
| --- | --- | --- |
| C=C1C(=O)O[C@@H]2[C@@H]1C[C@H]1O[C@]1(COC(C)=O)CC/C=C(\C)[C@@H](O)C/C=C(\C)[C@H]2OC(C)=O (relative stereo) [DURUMOLIDE I] | % | 6.2 |
| C=C1C(=O)O[C@H]2C/C(C)=C/CC/C(C)=C/CC[C@](O)(COC(C)=O)[C@@H](O)C[C@H]12 [DURUMOLIDE F] | % | 0.8 |

Provide iNOS protein level (% of LPS control) at 10 µM for all items below, preserving their order.
1. C=C1C(=O)O[C@@H]2[C@@H]1C[C@H]1O[C@]1(C)CC/C=C(\C)CC/C=C(\C)[C@H]2O [DURUMOLIDE J]
2. C=C1C(=O)O[C@@H]2[C@@H]1C[C@H](OC(C)=O)[C@@](O)(COC(C)=O)CC/C=C(\C)CC/C=C(\C)[C@H]2OC(C)=O (relative stereo) [DURUMOLIDE H]
3. O=C(/C=C/c1ccc(O)c(O)c1)OCCc1ccccc1

-- reply
0.1
22.6
1.5
